Data provenance is ChEMBL document CHEMBL5500393.

- protocolNotes: Metabolic stability in human liver microsomes assessed as intrinsic clearance at 1 uM measured upto 120 mins in presence of NADPH by LC-MS analysis
- Assay type: ADME, Microsome
- measurementParameters: read-out: CLH
Would you mind telling me the reported CLint scaled at 1 µM of each entry?
Answers are plain numbers, in mL/min/kg.

Example cases with answers are listed next.
| molecule | resultUnit | CLint scaled at 1 µM |
| --- | --- | --- |
| Cc1c(CN(C)C(=O)/C=C/c2cnc3c(c2)CCC(=O)N3)oc2ccccc12 | mL/min/kg | 50.4 |
| COc1c(Br)cccc1N1CC(c2nc3ccccc3n2C)CC1=O (stereo not drawn) | mL/min/kg | 45.4 |

Lab note: measured CLint scaled at 1 µM of Cc1c(Br)cccc1N1CC(c2nc3ccccc3n2C)CC1=O (stereo not drawn) was 27.3
